Collected Pre-emergence Herbicidal Activity ZEAMX (growth controlling degree) values appear next to each entry.
tested on: corn (Zea mays L.): ZEAMX; assay: Test Example 1 pre-emergence herbicidal activity, ZEAMX; format: in vivo; settings: Rate 63 g a.i./ha, visually observed 20th to 23rd day after application
endpoint-label: Pre-emergence Herbicidal Activity ZEAMX (growth controlling degree) (%)

- compound: "Cn1nc(-c2c(F)cc(Cl)c(OC(F)F)c2NS(C)(=O)=O)c(Cl)c1OC(F)F [Compound 1-84]"
  reported-result: 0
- compound: "COc1c(Cl)cc(F)c(-c2nn(C)c(OC(F)F)c2Cl)c1NC(=O)C=Cc1ccccc1F [Compound 1-256]"
  reported-result: 0
- compound: "COc1c(Cl)cc(F)c(-c2nn(C)c(OC(F)F)c2Cl)c1NC(=O)C=Cc1c(Cl)cccc1Cl [Compound 1-252]"
  reported-result: 0
- compound: "COc1c(Cl)cc(F)c(-c2nn(C)c(OC(F)F)c2Cl)c1NC(=O)COc1ccc(Cl)cc1 [Compound 1-35]"
  reported-result: 0
- compound: "C#CCNc1c(OC)c(Cl)cc(F)c1-c1nn(C)c(OC(F)F)c1Cl [Compound 1-53]"
  reported-result: 20
- compound: "COc1c(Cl)cc(F)c(-c2nn(C)c(OC(F)F)c2Cl)c1NC(=O)COc1ccc(C#N)cc1 [Compound 1-36]"
  reported-result: 0
- compound: "COc1c(Cl)cc(F)c(-c2nn(C)c(OC(F)F)c2Cl)c1NC(=O)Oc1ccccc1 [Compound 1-67]"
  reported-result: 0
- compound: "COc1c(Cl)cc(F)c(-c2nn(C)c(OC(F)F)c2Cl)c1N(C)C=O [Compound 1-6]"
  reported-result: 30
- compound: "COc1c(Cl)cc(F)c(-c2nn(C)c(OC(F)F)c2Cl)c1NC(=O)C(C)(C)OC(C)=O [Compound 1-44]"
  reported-result: 0
- compound: "C#CCNc1c(OC(F)F)c(Cl)cc(F)c1-c1nn(C)c(OC(F)F)c1Cl [Compound 1-87]"
  reported-result: 0
- compound: "COc1c(Cl)cc(F)c(-c2nn(C)c(OC(F)F)c2Cl)c1NC(=O)OCC1CCCCC1 [Compound 1-73]"
  reported-result: 0
- compound: "COc1c(Cl)cc(F)c(-c2nn(C)c(OC(F)F)c2Cl)c1N(C(=O)C=C(C)C)C(=O)C=C(C)C [Compound 1-11]"
  reported-result: 30
- compound: "COc1c(Cl)cc(F)c(-c2nn(C)c(OC(F)F)c2Cl)c1NC(=O)c1cccc(C)c1 [Compound 1-260]"
  reported-result: 10
- compound: "COc1c(Cl)cc(F)c(-c2nn(C)c(OC(F)F)c2Cl)c1N(C=O)CC(C)=O [Compound 1-14]"
  reported-result: 40
- compound: "COc1c(Cl)cc(F)c(-c2nn(C)c(OC(F)F)c2Cl)c1NC(=O)c1ccccc1Cl [Compound 1-23]"
  reported-result: 0
- compound: "COc1c(Cl)cc(F)c(-c2nn(C)c(OC(F)F)c2Cl)c1NC(=O)C(C)Oc1ccccc1 (stereo not shown) [Compound 1-33]"
  reported-result: 0
